target: ADP-ribosylation factor GTPase-activating protein 1 (Rattus norvegicus) (UniProt Q62848); test: Inhibition of poly-histidine tagged full-length rat ARFGAP1 expressed in Sf9 cells assessed as remaining enzyme activity at 10 uM using purified WT ARF1 pre-loaded with [gamm-32P]-labeled GTP incubated for 5 mins before ARF1-GTP addition followed by 25 mins incubation by scintillation counting method
Sequence (Q62848 whole entry): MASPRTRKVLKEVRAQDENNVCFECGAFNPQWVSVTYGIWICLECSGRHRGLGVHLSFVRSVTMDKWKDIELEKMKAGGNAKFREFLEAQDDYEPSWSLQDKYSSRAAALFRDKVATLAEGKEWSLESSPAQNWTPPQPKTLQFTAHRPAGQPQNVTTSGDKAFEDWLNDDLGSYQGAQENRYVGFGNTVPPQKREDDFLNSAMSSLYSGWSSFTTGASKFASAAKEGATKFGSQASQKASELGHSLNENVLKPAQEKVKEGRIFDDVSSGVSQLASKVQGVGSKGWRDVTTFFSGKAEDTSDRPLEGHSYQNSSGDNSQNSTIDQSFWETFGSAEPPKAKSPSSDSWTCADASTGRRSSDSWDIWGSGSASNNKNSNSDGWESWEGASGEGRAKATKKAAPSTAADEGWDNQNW
Listed below: Activity values for each entry.
REPORTED ENDPOINT: Activity (%)

CHEM SMILES | TARGET OR TEST SYSTEM | REPORTED ENDPOINT | READOUT UNITS | OBSERVED
OC[C@H](Cc1ccccc1)Nc1nc(Oc2ccc3ccccc3c2)nc2c1ncn2Cc1ccc(-c2ccccc2)cc1 | ADP-ribosylation factor GTPase-activating protein 1 (Rattus norvegicus) (UniProt Q62848) | Activity | % | 53
OC[C@H](Cc1ccccc1)Nc1nc(Oc2ccc3c(c2)OCO3)nc2c1ncn2Cc1ccc(-c2ccccc2)cc1 | ADP-ribosylation factor GTPase-activating protein 1 (Rattus norvegicus) (UniProt Q62848) | Activity | % | 49
c1ccc(CCNc2nc(Oc3ccc4c(c3)CCC4)nc3c2ncn3Cc2ccc(-c3ccccc3)cc2)cc1 | ADP-ribosylation factor GTPase-activating protein 1 (Rattus norvegicus) (UniProt Q62848) | Activity | % | 60
CC[C@@H](CO)Nc1nc(Oc2ccc3c(c2)CCC3)nc2c1ncn2Cc1ccc(-c2ccccc2)cc1 | ADP-ribosylation factor GTPase-activating protein 1 (Rattus norvegicus) (UniProt Q62848) | Activity | % | 90
OC[C@H](Cc1ccccc1)Nc1nc(Oc2ccc3c(c2)CCC3)nc2c1ncn2CCOCc1ccccc1 | ADP-ribosylation factor GTPase-activating protein 1 (Rattus norvegicus) (UniProt Q62848) | Activity | % | 106
c1ccc(-c2ccc(Cn3cnc4c(NCc5cccc6ccccc56)nc(Oc5ccc6ccccc6c5)nc43)cc2)cc1 | ADP-ribosylation factor GTPase-activating protein 1 (Rattus norvegicus) (UniProt Q62848) | Activity | % | 53
c1ccc(CCNc2nc(Oc3ccc4c(c3)OCO4)nc3c2ncn3Cc2ccc(-c3ccccc3)cc2)cc1 | ADP-ribosylation factor GTPase-activating protein 1 (Rattus norvegicus) (UniProt Q62848) | Activity | % | 31
OC[C@H](Cc1ccccc1)Nc1nc(N2CCOCC2)nc2c1ncn2Cc1ccc(-c2ccccc2)cc1 | ADP-ribosylation factor GTPase-activating protein 1 (Rattus norvegicus) (UniProt Q62848) | Activity | % | 98

Hello, the source for this data is ChEMBL document CHEMBL3627670, in case you need it.
